B1: NEK8 (parent)
chain: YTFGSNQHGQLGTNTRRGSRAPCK

- Variants of: B1
- procedure-text: protein stability index of a GFP-peptide fusion (GPS, HEK-293T) (PSI 1-6); higher = more stable;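 also: lentivirally expressed fusions sorted by FACS into six bins by GFP to DsRed ratio, PSI derived from sequencing read proportions per bin multiplied by bin number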
- experimental-conditions: c terminus: a fixed tail appended
Overview of recorded protein stability index for various variants
Output: the number by itself.

The cases that follow already have their protein stability index on record.
construct-sequence | protein stability index
YTFGSNGHGQLGTNTRRGSRAPCK | 4.07
YTFGSEQHGQLGTNTRRGSRAPCK | 4.44
YTFGSNQHGQRGTNTRRGSRAPCK | 4.65

Query: Could you tell me which protein stability index is on file for `YTFGSNQHGQLGTNTRRGSIAPCK` ?
Reply: 3.52

Query: Look up protein stability index: `YTFGSNQHGQLGTNRRRGSRAPCK`
Reply: 3.98

Query: Please report the recorded protein stability index for `YTAGSNQHGQLGTNTRRGSRAPCK` .
Reply: 3.31

Query: Can you share its protein stability index? I mean this variant: `YTFGSNQHGPLGTNTRRGSRAPCK`
Reply: 4

Query: If you can, please state the reported protein stability index value of `YTFGSNQHGQLGTNTRRGSRAPCL` .
Reply: 3.81

Query: Need protein stability index, item `YTFGSNQHGQWGTNTRRGSRAPCK`
Reply: 3.22

Query: # lookup: protein stability index of `YTFGSNQHGQVGTNTRRGSRAPCK`
Reply: 4.1

Query: Reported protein stability index, variant `DTFGSNQHGQLGTNTRRGSRAPCK` : ____
Reply: 4.96
